molecular target: Pax5(1-149) WT;Ets-1(280-440) (human;murine, UniProt Q02548;P27577 1-149;280-440, |); assay: EMSA
Sequence (Q02548 1-149, chain 1 of 2): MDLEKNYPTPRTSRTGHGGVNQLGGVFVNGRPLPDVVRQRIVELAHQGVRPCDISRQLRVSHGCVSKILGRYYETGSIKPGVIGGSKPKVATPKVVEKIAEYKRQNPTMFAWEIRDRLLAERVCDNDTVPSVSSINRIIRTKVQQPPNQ
Sequence (P27577 280-440, chain 2 of 2): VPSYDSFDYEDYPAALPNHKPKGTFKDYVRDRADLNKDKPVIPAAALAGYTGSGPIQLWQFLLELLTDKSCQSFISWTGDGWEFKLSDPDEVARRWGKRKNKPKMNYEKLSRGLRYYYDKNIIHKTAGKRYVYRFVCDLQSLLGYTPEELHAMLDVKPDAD
Value kind: pKd
Here pKd is given on a logarithmic scale as minus log10 of the concentration in mol/L.

Read the entry P5-EBS probe (dsDNA) DNA 1: TCGAAGGGCCACTGGAGCCCATCTCCGGCACGGC DNA 2: TCGAGCCGTGCCGGAGATGGGCTCCAGTGGCCCT and write its reported pKd.
9.31
